Assay: Cytotoxicity evaluation, MTT
Type: cell-based, human
Details: human; HepG2 cells; 72 h; read-out: Cytotoxicity to HepG2 cells CC50 values
experimental.endpoint: CC50 at 72 h
Don't forget the unit after the number, please.

Data point: COc1cccc2c1C(=O)c1c(O)c3c(c(O)c1C2=O)C[C@@](O)(C(=O)CO)C[C@@H]3O[C@H]1C[C@H](N)[C@H](O)[C@H](C)O1 [Doxorubicin, reference compound] ; CC50 at 72 h = 60 nM

----------
Experiment: Cytotoxicity evaluation, MTT
Assay type: cell-based, human
Conditions: human
Catalogue of CC50 at 72 h values
API: value field is a number in µM; no unit string.

The cases that follow already have their CC50 at 72 h on record.
[[record]]
compound = "CN1CCN(CCCCNCc2ccc(-c3nc(-c4ccc(CNCCCCN5CCN(C)CC5)cc4)c4ccccc4n3)cc2)CC1 [Compound 3d]"
experimental_endpoint = "CC50 at 72 h"
test_value = 28.7

[[record]]
compound = "COc1ccc2c(-c3ccc(CNCCCCN(C)C)cc3)nc(-c3ccc(CNCCCCN(C)C)cc3)nc2c1 [Compound 3m]"
experimental_endpoint = "CC50 at 72 h"
test_value = 25.1

[[record]]
compound = "c1cc(CNCCCN2CCOCC2)cc(-c2cc(-c3cccc(CNCCCN4CCOCC4)c3)c3ccccc3n2)c1 [Compound 1s]"
experimental_endpoint = "CC50 at 72 h"
test_value = 2.63


Consider the additional compound presented here.
Data point: CN1CCN(CCCNCc2cccc(-c3cc(-c4cccc(CNCCCN5CCN(C)CC5)c4)c4ccccc4n3)c2)CC1 [Compound 1r] ; CC50 at 72 h = 4.97

----------
Structures can show the parent of a compound that is named as a salt.
experimental.endpoint: melting point

The cases that follow already have their melting point on record.
[[record]]
molecule = "COc1ccc2nc(-c3ccc(CNCCCN(C)C)cc3)cc(-c3ccc(CNCCCN(C)C)cc3)c2c1 (as salt: (cooh)2)"
test_value = "224 to 226 °C"

[[record]]
molecule = "COc1ccc2nc(-c3ccc(CNCCN(C)C)cc3)nc(-c3ccc(CNCCN(C)C)cc3)c2c1 (as salt: (cooh)2)"
test_value = "233 to 235 °C"

[[record]]
molecule = "COc1ccc2c(-c3ccc(CNCCCCN(C)C)cc3)nc(-c3ccc(CNCCCCN(C)C)cc3)nc2c1 (as salt: (cooh)2)"
test_value = "216 to 218 °C"

[[record]]
molecule = "COc1ccc2nc(-c3ccc(CNCCCN(C)C)cc3)nc(-c3ccc(CNCCCN(C)C)cc3)c2c1 (as salt: (cooh)2)"
test_value = "243 to 245 °C"

[[record]]
molecule = "CN(C)CCCNCc1cccc(-c2nc(-c3cccc(CNCCCN(C)C)c3)c3ccccc3n2)c1 (as salt: (cooh)2)"
test_value = "> 260 °C"


Data point: CN1CCN(CCCNCc2ccc(-c3cc(-c4ccc(CNCCCN5CCN(C)CC5)cc4)c4ccccc4n3)cc2)CC1 (as salt: (cooh)2) ; melting point = 249 to 251 °C
